- Tested on: MDA-MB-231 cells
- protocol-details: CellTiter-Glo Luminescent Cell Viability Assay on ER-negative breast cancer MDA-MB-231 cells in vitro
- Type: cell-based
- assay-conditions: Homo sapiens, 72 hours, read-out: Inhibition of viability of breast cancer cells IC50, MDA-MB-231 cells
observable: IC50

Use these answered entries as a reference point.
INSERT INTO assay_data (compound, test_target, result) VALUES
  ('COc1c(-c2ccc(F)c(F)c2)oc2c(CC=C(C)C)c(O)cc(O)c2c1=O [Compound 10]', 'MDA-MB-231 cells', '> 100 µM'),
  ('CC(C)=CCc1c(O)cc(O)c2c(=O)c(O)c(-c3ccc(F)cc3)oc12 [Compound 2]', 'MDA-MB-231 cells', '> 100 µM');

Lab note: next compound to report on.
Quick one: IC50 for COc1c(-c2ccc(C(F)(F)F)cc2)oc2c(CC=C(C)C)c(O)cc(O)c2c1=O [Compound 9] ?
> 100 µM

Entry source: patent US9221781B2
